B1: CPEB3 Ribozyme (parent)
chain: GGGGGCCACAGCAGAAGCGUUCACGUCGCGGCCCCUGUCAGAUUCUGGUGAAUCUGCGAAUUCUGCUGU

variants of: B1; assay: self-cleavage, relative activity (ratio to wild type); higher = more cleavage; co-transcriptional
Listing: self-cleavage of selected variants

| Construct Sequence | self-cleavage |
| --- | --- |
| GGGGGCCACACCAGAAGCGUUCACGUCGCGGCCUCUGUCAGAUUCUGGUGAAUCUGCGAAUUCUGCUGU | 0.901 |
| GGGGGCCACAGCAGAAGCGUUCACGUCGCGGCCCCUGUCAGAUUCUGGUGAAUCCGCGACUUCUGCUGU | 0.306 |
| GGGGGCCACAGCAGAAGCGUUCACGUCGCGGCCCUUGUCAGAUUCUGGUGAAUCUGCGCAUUCUGCUGU | 0.41 |
| GGGGGCCACAGCAGAAGCGUUCACGUCGCGGCCCCUGUCAGAUUCUGUUGAAUCUGCGAACUCUGCUGU | 0.905 |
| GGGGGCCACAGCAGAAGCGUUCACAUCGCGGCCCCUGUCCGAUUCUGGUGAAUCUGCGAAUUCUGCUGU | 0.178 |
| GGGGGCCACAGCACAAGCGUUCACGUCGCGGCCCCUGUCAGAUUCUGGUGAAUCUGCGAAUUCUGCUCU | 0.607 |
| GGGGGCCACAGCAGGAGCGUUCACGUCGCGGCCCCUGUCAGAUUCUGGUGAAUCUGCGAAUUCGGCUGU | 0.918 |
| GGGGGCCGCAGCAGAAGCGUUCACGUCGCCGCCCCUGUCAGAUUCUGGUGAAUCUGCGAAUUCUGCUGU | 0.602 |

For reference, reported self-cleavage for GGGGGCCACAGCAGAAACGUUCACGUCGCGGCCCCUGUCAGCUUCUGGUGAAUCUGCGAAUUCUGCUGU stands at 0.253

For reference, reported self-cleavage for GGGGGCCACAGCAGAAGCGUUCACGUCGCGGCCCCUGUCAGAUUCUGGUGCAUCUGCGAAUACUGCUGU stands at 0.901

For reference, reported self-cleavage for GGGGGCGACAGCAGAAGCGUUCACGUCGCGGCCCCUGUCAGAUUGUGGUGAAUCUGCGAAUUCUGCUGU stands at 0.295

For reference, reported self-cleavage for GGGUGCCACAUCAGAAGCGUUCACGUCGCGGCCCCUGUCAGAUUCUGGUGAAUCUGCGAAUUCUGCUGU stands at 0.492

For reference, reported self-cleavage for GGGGGCCACAGCAGAAGCGUUCACGUCGCGGACCCUGUCAGAUUCUGGCGAAUCUGCGAAUUCUGCUGU stands at 0.704

For reference, reported self-cleavage for GGGGGCCACAGCAGAAGCGUUCACGUCGCGGCCCCUGUCCGAUUCUGGUGAAUUUGCGAAUUCUGCUGU stands at 0.523

For reference, reported self-cleavage for GGGGGCCACAGCAGAAGCGAUCACGUCGCGUCCCCUGUCAGAUUCUGGUGAAUCUGCGAAUUCUGCUGU stands at 0.17

For reference, reported self-cleavage for GGGGGCCACAGCAGAAGGGUUCACGUCGAGGCCCCUGUCAGAUUCUGGUGAAUCUGCGAAUUCUGCUGU stands at 0.16

Source of measurements: the RNAGym collection of RNA variant scans (doi:10.7554/elife.80360)
